Biological target: T1, mouse PD-1 antigen protein of the affinity-maturation screen (mouse, UniProt Q02242 25-167, limits assumed, biotinylated)
T1 sequence (looked up): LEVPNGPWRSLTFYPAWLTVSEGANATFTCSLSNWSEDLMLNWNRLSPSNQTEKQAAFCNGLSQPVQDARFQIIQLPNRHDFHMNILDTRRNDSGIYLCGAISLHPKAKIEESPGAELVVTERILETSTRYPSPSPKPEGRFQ
Assay: capture ELISA, second-round affinity-maturation screen (scFv format likely); unit not given

binder	Bmax
A6W (antibody, V domains shown) VH: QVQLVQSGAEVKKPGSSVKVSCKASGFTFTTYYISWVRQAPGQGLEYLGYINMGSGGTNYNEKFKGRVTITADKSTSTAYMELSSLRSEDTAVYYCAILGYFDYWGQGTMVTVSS VL: DVVMTQSPLSLPVTLGQPASISCRSSQSLLDSDGNTYLYWFQQRPGQSPRRLIYLVSTLGSGVPDRFSGSGSGTDFTLKISRVEAEDVGVYYCMQLTHWPYTFGQGTKLEIK	0.174
2B1 (antibody, V domains shown) VH: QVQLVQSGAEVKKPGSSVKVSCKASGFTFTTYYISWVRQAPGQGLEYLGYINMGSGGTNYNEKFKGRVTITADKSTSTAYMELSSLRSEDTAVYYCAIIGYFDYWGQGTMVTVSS VL: DVVMTQSPLSLPVTLGQPASISCRSSQSLLDSDGNTYLYWFQQRPGQSPRRLIYLVSTLGSGVPDRFSGSGSGTDFTLKISRVEAEDVGVYYCMQLTHWPYTFGQGTKLEIK	0.339
1H6 (antibody, human IgG4, V domains shown) VH: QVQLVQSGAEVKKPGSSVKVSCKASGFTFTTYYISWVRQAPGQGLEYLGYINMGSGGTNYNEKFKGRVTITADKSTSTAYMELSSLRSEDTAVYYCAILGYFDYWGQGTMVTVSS VL: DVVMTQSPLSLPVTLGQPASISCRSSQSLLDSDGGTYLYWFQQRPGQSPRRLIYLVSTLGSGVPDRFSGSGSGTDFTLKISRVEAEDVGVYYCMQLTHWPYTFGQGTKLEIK	0.221
2C2 (antibody, human IgG4, V domains shown) VH: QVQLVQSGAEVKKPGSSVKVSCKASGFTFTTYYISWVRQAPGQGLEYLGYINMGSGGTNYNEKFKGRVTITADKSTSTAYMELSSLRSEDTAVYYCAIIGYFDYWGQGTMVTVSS VL: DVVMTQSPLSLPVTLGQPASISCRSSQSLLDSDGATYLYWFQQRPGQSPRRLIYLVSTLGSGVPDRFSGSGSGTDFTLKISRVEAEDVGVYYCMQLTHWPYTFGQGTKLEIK	0.416
2E5 (antibody, human IgG4, V domains shown) VH: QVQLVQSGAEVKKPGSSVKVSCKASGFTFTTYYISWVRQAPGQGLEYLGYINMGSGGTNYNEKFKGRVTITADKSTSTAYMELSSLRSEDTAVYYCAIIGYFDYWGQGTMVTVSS VL: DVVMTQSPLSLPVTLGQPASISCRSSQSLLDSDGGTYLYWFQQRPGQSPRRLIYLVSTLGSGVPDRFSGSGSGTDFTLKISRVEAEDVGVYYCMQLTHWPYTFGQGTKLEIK	0.47
